Values compiled from ChEMBL document CHEMBL1144471.

experimentalTarget: Adenosine receptor A2b (Homo sapiens, UniProt P29275)
Sequence (P29275 whole entry): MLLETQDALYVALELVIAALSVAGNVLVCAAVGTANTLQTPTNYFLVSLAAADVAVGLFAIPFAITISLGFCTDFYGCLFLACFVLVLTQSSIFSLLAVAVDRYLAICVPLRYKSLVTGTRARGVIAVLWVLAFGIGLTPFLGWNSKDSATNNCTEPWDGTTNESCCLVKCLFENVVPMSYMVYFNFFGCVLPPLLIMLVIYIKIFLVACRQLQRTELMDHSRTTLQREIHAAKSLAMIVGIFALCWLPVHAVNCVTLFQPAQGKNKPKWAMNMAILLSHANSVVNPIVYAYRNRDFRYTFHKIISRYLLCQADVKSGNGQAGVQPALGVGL
protocolNotes: Agonist activity at human adenosine A2B receptor expressed in CHO cells assessed as stimulation of cAMP production
readoutKind: EC50 (µM)

Some compounds with recorded EC50:
>>> reportedmeasurement("Nc1nc(OCCc2c[nH]c3ccc(I)cc23)nc2c1ncn2[C@@H]1O[C@H](CO)[C@@H](O)[C@H]1O")
1.87
>>> reportedmeasurement("Nc1nc(OCCc2c[nH]c3ccc(F)cc23)nc2c1ncn2[C@@H]1O[C@H](CO)[C@@H](O)[C@H]1O")
0.767
>>> reportedmeasurement("CCNC(=O)[C@H]1O[C@@H](n2cnc3c(N)nc(OCCc4c[nH]c5ccccc45)nc32)[C@H](O)[C@@H]1O")
0.989
>>> reportedmeasurement("Nc1nc(OCCc2c[nH]c3ccccc23)nc2c1ncn2[C@@H]1O[C@H](CO)[C@@H](O)[C@H]1O")
0.299
>>> reportedmeasurement("Nc1nc(OCCc2ccc3ccccc3c2)nc2c1ncn2[C@@H]1O[C@H](CO)[C@@H](O)[C@H]1O")
1.44

a = Nc1nc(OCCc2ccccc2)nc2c1ncn2[C@@H]1O[C@H](CO)[C@@H](O)[C@H]1O
b = Nc1nc(OCCc2cccs2)nc2c1ncn2[C@@H]1O[C@H](CO)[C@@H](O)[C@H]1O
Q: Could you tell me which of these two has the smaller EC50 figure? First: a Second: b # answer = label of selected item
A: b
(b: 1.78 µM, a: 3.49 µM)

###

experimentalTarget: Adenosine receptor A2b (Homo sapiens)
protocolNotes: Agonist activity at human adenosine A2B receptor expressed in CHO cells assessed as stimulation of cAMP production at 10 uM
Format: functional, cell-based
readoutKind: Activity (%)

Consider the following illustrative entries.
>>> reportedmeasurement("C[C@@H](CCOc1nc(N)c2ncn([C@@H]3O[C@H](CO)[C@@H](O)[C@H]3O)c2n1)c1ccccc1")
13
>>> reportedmeasurement("Nc1nc(OCCc2c[nH]c3cccc(Br)c23)nc2c1ncn2[C@@H]1O[C@H](CO)[C@@H](O)[C@H]1O")
16
>>> reportedmeasurement("Nc1nc(OCCc2ccsc2)nc2c1ncn2[C@@H]1O[C@H](CO)[C@@H](O)[C@H]1O")
9

A = Nc1nc(OCCc2ccccc2F)nc2c1ncn2[C@@H]1O[C@H](CO)[C@@H](O)[C@H]1O
B = Nc1nc(OCCCCc2ccccc2)nc2c1ncn2[C@@H]1O[C@H](CO)[C@@H](O)[C@H]1O
C = Nc1nc(OCCCc2ccccc2)nc2c1ncn2[C@@H]1O[C@H](CO)[C@@H](O)[C@H]1O
Q: Order the items by recorded Activity; the first position goes to the largest value. In plain terms: list the labels in the order you were asked to.
A: C, A, B
(C: 29%, A: 12%, B: 3%)

###

Target sequence: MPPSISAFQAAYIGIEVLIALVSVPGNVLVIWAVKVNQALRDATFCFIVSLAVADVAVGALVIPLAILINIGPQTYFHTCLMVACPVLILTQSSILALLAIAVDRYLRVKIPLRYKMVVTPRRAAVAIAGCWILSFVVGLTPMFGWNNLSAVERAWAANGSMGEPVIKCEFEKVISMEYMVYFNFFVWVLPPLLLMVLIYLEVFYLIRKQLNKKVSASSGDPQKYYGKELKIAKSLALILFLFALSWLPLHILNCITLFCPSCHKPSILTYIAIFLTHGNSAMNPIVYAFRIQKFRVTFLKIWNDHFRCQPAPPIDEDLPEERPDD
readoutKind: Ki (nM)

Below, each entry is followed by its recorded Ki result.
>>> reportedmeasurement("CCNC(=O)[C@H]1O[C@@H](n2cnc3c(N)nc(OCCc4c[nH]c5ccccc45)nc32)[C@H](O)[C@@H]1O")
190
>>> reportedmeasurement("Nc1nc(OCCc2ccccc2)nc2c1ncn2[C@@H]1O[C@H](CO)[C@@H](O)[C@H]1O")
221
>>> reportedmeasurement("COc1ccc2[nH]cc(CCOc3nc(N)c4ncn([C@@H]5O[C@H](CO)[C@@H](O)[C@H]5O)c4n3)c2c1")
1820
>>> reportedmeasurement("Nc1nc(OCCc2c[nH]c3cc(Br)ccc23)nc2c1ncn2[C@@H]1O[C@H](CO)[C@@H](O)[C@H]1O")
253

A = C[C@@H](CCOc1nc(N)c2ncn([C@@H]3O[C@H](CO)[C@@H](O)[C@H]3O)c2n1)c1ccccc1
B = Nc1nc(OCCc2cc3ccccc3[nH]2)nc2c1ncn2[C@@H]1O[C@H](CO)[C@@H](O)[C@H]1O
C = COc1ccc2[nH]c(C)c(CCOc3nc(N)c4ncn([C@@H]5O[C@H](CO)[C@@H](O)[C@H]5O)c4n3)c2c1
Q: Order the records, beginning with the lowest Ki and ending with the highest. Respond with the label ranking, as requested.
A: B, C, A
